Tested on: IFNα-stimulated STAT-dependent luciferase reporter in Kit225 T cells
methodNotes: Kit225 T cell assay, IFNα stimulated STAT-dependent luciferase reporter
Type: cell-based, human
recordedConditions: Kit225 T cells, 200 U/mL human recombinant IFNα, 5-6 hours, luciferase; read-out: IFNα (Kit225 T Cell Inhibition Data)
pIC50: −log10 of the molar value.
valueType: pIC50

                                    molecule  reportedvalue
 0  CNC(=O)c1cnc(Nc2ccc(CO)cn2)cc1Nc1ccccc1C(N)=O [Example 79]           5.73
 1  CNC(=O)c1cnc(Nc2cc(C)nc(C)n2)cc1Nc1cccc(-c2ccnn2C)c1OC [Example 394]           7.52
 2  CNC(=O)c1cnc(Nc2cc(C(=O)N3CCOCC3)ccn2)cc1Nc1ccc(F)cc1OC [Example 269]           6.05
 3  CNC(=O)c1cnc(Nc2ccc(C(=O)N3CCOCC3)cn2)cc1Nc1ccc(Cl)cc1OC [Example 263]           5.44
 4  CNC(=O)c1cnc(Nc2ccc(F)cn2)cc1Nc1ccc(C(=O)N2CCCCC2)cc1 [Example 244]           5.90
 5  CNC(=O)c1cnc(Nc2ccn(C(C)C)n2)cc1Nc1cc(F)cc(F)c1OC [Example 408]           6.37
 6  CNC(=O)c1cnc(Nc2cccc(-n3ccccc3=O)n2)cc1Nc1ccc(F)cc1OC [Example 165]           5.18
 7  CNC(=O)c1cnc(Nc2cc(C)c(F)cn2)cc1Nc1ccccc1S(N)(=O)=O [Example 431]           7.10
 8  CNC(=O)c1cnc(Nc2ccc(N3CCOCC3)cn2)cc1Nc1ccccc1C(N)=O [Example 85]           6.20
 9  CNC(=O)c1cnc(Nc2cc(C)c(C#N)c(C)n2)cc1Nc1ccc(F)cc1OC [Example 163]           6.64
10  CNC(=O)c1cnc(Nc2ccc(C#N)c(C)n2)cc1Nc1ccccc1C(N)=O [Example 86]           6.37
11  CNC(=O)c1cnc(Nc2cnc(C#N)cn2)cc1Nc1ccccc1S(C)(=O)=O [Example 41]           5.72
12  CNC(=O)c1cnc(Nc2ccc(F)cn2)cc1Nc1cccc(OC)c1 [Example 202]           5.18
13  CNC(=O)c1cnc(Nc2ccn(C(C)C)n2)cc1Nc1ccccc1S(C)(=O)=O [Example 442]           6.89
14  CNC(=O)c1cnc(Nc2cc(C)nc(C)n2)cc1Nc1cccc(-c2nnc(C)o2)c1OC [Example 361]           7.70
15  CNC(=O)c1cnc(Nc2ccc(F)cn2)cc1Nc1ccccc1NC(C)=O [Example 280]           5.22
16  CNC(=O)c1cnc(Nc2cc(C)c(C#N)c(C)n2)cc1Nc1cc(F)cc(F)c1OC [Example 140]           6.92

* * *

Test system: IFNα-stimulated STAT-dependent luciferase reporter in Kit225 T cells
methodNotes: Kit225 T cell assay, IFNα stimulated STAT-dependent luciferase reporter
Type: cell-based, human
recordedConditions: Kit225 T cells, 200 U/mL human recombinant IFNα, 5-6 hours, luciferase; read-out: IFNα (Kit225 T Cell Inhibition Data)
pIC50: −log10 of the molar value.
valueType: pIC50

>>> df
                                   compound                              systemtested  valuetype  reportedvalue
0  CNC(=O)c1cnc(Nc2ccn(C)n2)cc1Nc1cc(F)cc(F)c1OC [Example 407]  IFNα-stimulated STAT-dependent luciferase reporter in Kit225 T cells      pIC50           7.05
1  CNC(=O)c1cnc(Nc2cc(C)nc(C)n2)cc1Nc1cccc(-c2ncn(CC(F)F)n2)c1OC [Example 378]  IFNα-stimulated STAT-dependent luciferase reporter in Kit225 T cells      pIC50           8.00
2  CNC(=O)c1cnc(Nc2ccccn2)cc1Nc1cccc(-c2ncn(C)n2)c1OC [Example 374]  IFNα-stimulated STAT-dependent luciferase reporter in Kit225 T cells      pIC50           8.16
3  CCOc1c(F)cc(F)cc1Nc1cc(Nc2ccc(N3CCOCC3)cn2)ncc1C(=O)NC [Example 230]  IFNα-stimulated STAT-dependent luciferase reporter in Kit225 T cells      pIC50           6.80
4  CNC(=O)c1cnc(Nc2ccc(F)cn2)cc1Nc1ccc(N2CCOCC2)cc1 [Example 211]  IFNα-stimulated STAT-dependent luciferase reporter in Kit225 T cells      pIC50           5.50
5  CNC(=O)c1cnc(Nc2cc(NC)nc(C)n2)cc1Nc1cccnc1OC [Example 403]  IFNα-stimulated STAT-dependent luciferase reporter in Kit225 T cells      pIC50           6.54
6  CNC(=O)c1cnc(Nc2ccccn2)cc1Nc1ccc(S(C)(=O)=O)cc1OC [Example 45]  IFNα-stimulated STAT-dependent luciferase reporter in Kit225 T cells      pIC50           5.90
7  CNC(=O)c1cnc(Nc2ccc(N3CCC(C)(O)CC3)cn2)cc1Nc1ccccc1S(C)(=O)=O [Example 436]  IFNα-stimulated STAT-dependent luciferase reporter in Kit225 T cells      pIC50           6.92

Entry source: patent US9315494B2
